Measured values drawn from paper PMC9500755 for this set.

Below, each entry is listed with its recorded Retention factor k.
Biological target: human serum albumin (HSA) (Homo sapiens, UniProt P02768)
Construct: purchased Biowest, Nuaillé, France
Sequence (P02768 25-609): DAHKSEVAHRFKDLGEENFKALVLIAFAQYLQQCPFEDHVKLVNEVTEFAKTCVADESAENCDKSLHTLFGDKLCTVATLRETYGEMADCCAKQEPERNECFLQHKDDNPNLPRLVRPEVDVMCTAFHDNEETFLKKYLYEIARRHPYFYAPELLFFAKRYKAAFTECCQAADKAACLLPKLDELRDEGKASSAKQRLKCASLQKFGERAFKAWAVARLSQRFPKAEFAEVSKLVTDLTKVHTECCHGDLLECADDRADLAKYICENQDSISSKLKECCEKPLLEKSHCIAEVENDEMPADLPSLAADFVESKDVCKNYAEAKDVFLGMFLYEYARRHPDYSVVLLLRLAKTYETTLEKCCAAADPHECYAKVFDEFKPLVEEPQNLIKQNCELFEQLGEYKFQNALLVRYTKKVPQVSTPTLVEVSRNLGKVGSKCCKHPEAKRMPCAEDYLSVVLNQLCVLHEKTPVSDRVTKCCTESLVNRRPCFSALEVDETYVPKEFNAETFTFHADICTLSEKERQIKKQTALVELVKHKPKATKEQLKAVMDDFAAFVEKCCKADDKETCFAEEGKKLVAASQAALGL
Assay: Albumin-mediated size exclusion chromatography (AMSEC)
Format: in vitro ADME
Conditions: fraction of time the radioligand is complexed to HSA during the AMSEC run; Equation (2)
Please state the value as a number alone, without comment.

CC(C)(C)[Si](F)(c1ccc(C(=O)NC[C@@H](NC(=O)CC[C@H](C(=O)O)N2CCN(CC(=O)[O-])CCN(CC(=O)[O-])CCN(CC(=O)[O-])CC2)C(=O)N[C@H](CCCCNC(=O)CCC(=O)NCCC[C@@H](NC(=O)CC[C@H](NC(=O)N[C@@H](CCC(=O)O)C(=O)O)C(=O)O)C(=O)O)C(=O)O)cc1)C(C)(C)C.[177Lu+3]; 0.613

Annotate the molecule `CC(C)(C)[Si](F)(c1ccc(C(=O)NC[C@H](NC(=O)CN2CCN(CC(=O)[O-])CCN(CC(=O)[O-])CCN(CC(=O)[O-])CC2)C(=O)N[C@H](CCCCNC(=O)CCC(=O)NCCC[C@@H](NC(=O)CC[C@H](NC(=O)N[C@@H](CCC(=O)O)C(=O)O)C(=O)O)C(=O)O)C(=O)O)cc1)C(C)(C)C.[177Lu+3]` with its measured Retention factor k.
0.543

Give Retention factor k for `CC(C)(C)[Si](F)(c1ccc(C(=O)NC[C@@H](NC(=O)CN2CCN(CC(=O)[O-])CCN(CC(=O)[O-])CCN(CC(=O)[O-])CC2)C(=O)N[C@H](CCCCNC(=O)CCC(=O)NCCC[C@@H](NC(=O)CC[C@H](NC(=O)N[C@@H](CCC(=O)O)C(=O)O)C(=O)O)C(=O)O)C(=O)O)cc1)C(C)(C)C.[177Lu+3]`
0.616

Give a short answer stating reported Retention factor k for `CC(C)(C)[Si](F)(c1ccc(C(=O)NC[C@H](NC(=O)CC[C@@H](C(=O)O)N2CCN(CC(=O)[O-])CCN(CC(=O)[O-])CCN(CC(=O)[O-])CC2)C(=O)N[C@H](CCCCNC(=O)CCC(=O)NCCC[C@@H](NC(=O)CC[C@H](NC(=O)N[C@@H](CCC(=O)O)C(=O)O)C(=O)O)C(=O)O)C(=O)O)cc1)C(C)(C)C.[177Lu+3]` .
0.729

Give me measured Retention factor k, please, for this molecule: `CC(C)(C)[Si](F)(c1ccc(C(=O)NC[C@H](NC(=O)CC[C@H](C(=O)O)N2CCN(CC(=O)[O-])CCN(CC(=O)[O-])CCN(CC(=O)[O-])CC2)C(=O)N[C@H](CCCCNC(=O)CCC(=O)NCCC[C@@H](NC(=O)CC[C@H](NC(=O)N[C@@H](CCC(=O)O)C(=O)O)C(=O)O)C(=O)O)C(=O)O)cc1)C(C)(C)C.[177Lu+3]`
0.680

Identify Retention factor k associated with the molecule O=C(O)CC[C@H](NC(=O)N[C@@H](CCCCNC(=O)[C@H](Cc1ccc2ccccc2c1)NC(=O)[C@H]1CC[C@H](CNC(=O)CN2CCN(CC(=O)O)CCN(CC(=O)O)CCN(CC(=O)O)CC2)CC1)C(=O)O)C(=O)O (177Lu complex, metal not drawn) [PSMA-617, reference compound]
0.447

====

Target: human serum albumin (HSA) (Homo sapiens, UniProt P02768)
Construct: purchased Biowest, Nuaillé, France
Assay: Albumin-mediated size exclusion chromatography (AMSEC)
Format: in vitro ADME
Settings: 177Lu-labeled ligand; mobile phase 700 µM HSA in PBS pH 7.4; Superdex 75 Increase; corrected for detector offset, normalized to column 1
Each item that follows carries a reported tR,AMSEC (retention time in AMSEC run).
Express your answer in min, writing the number without its unit.

A selection of reference data follows.
O=C(O)CC[C@H](NC(=O)N[C@@H](CCCCNC(=O)[C@H](Cc1ccc2ccccc2c1)NC(=O)[C@H]1CC[C@H](CNC(=O)CN2CCN(CC(=O)O)CCN(CC(=O)O)CCN(CC(=O)O)CC2)CC1)C(=O)O)C(=O)O (177Lu complex, metal not drawn) [PSMA-617, reference compound]; 17.586
CC(C)(C)[Si](F)(c1ccc(C(=O)NC[C@@H](NC(=O)CC[C@H](C(=O)O)N2CCN(CC(=O)[O-])CCN(CC(=O)[O-])CCN(CC(=O)[O-])CC2)C(=O)N[C@H](CCCCNC(=O)CCC(=O)NCCC[C@@H](NC(=O)CC[C@H](NC(=O)N[C@@H](CCC(=O)O)C(=O)O)C(=O)O)C(=O)O)C(=O)O)cc1)C(C)(C)C.[177Lu+3]; 15.240

# return tR,AMSEC (retention time in AMSEC run) of `CC(C)(C)[Si](F)(c1ccc(C(=O)NC[C@H](NC(=O)CC[C@H](C(=O)O)N2CCN(CC(=O)[O-])CCN(CC(=O)[O-])CCN(CC(=O)[O-])CC2)C(=O)N[C@H](CCCCNC(=O)CCC(=O)NCCC[C@@H](NC(=O)CC[C@H](NC(=O)N[C@@H](CCC(=O)O)C(=O)O)C(=O)O)C(=O)O)C(=O)O)cc1)C(C)(C)C.[177Lu+3]` (system: human serum albumin (HSA) (Homo sapiens, UniProt P02768))
14.564

====

Target: human serum albumin (HSA) (Homo sapiens)
Construct: purchased Biowest, Nuaillé, France
Assay: Albumin-mediated size exclusion chromatography (AMSEC)
Type: in vitro ADME
Conditions: from tR,AMSEC by column calibration; 700 µM HSA in PBS pH 7.4
observation type: MWapp,raw (raw apparent molecular weight) (kDa)
Provide the reading as a plain figure in kDa.

Indicate the recorded MWapp,raw (raw apparent molecular weight) value for this molecule: O=C(O)CC[C@H](NC(=O)N[C@@H](CCCCNC(=O)[C@H](Cc1ccc2ccccc2c1)NC(=O)[C@H]1CC[C@H](CNC(=O)CN2CCN(CC(=O)O)CCN(CC(=O)O)CCN(CC(=O)O)CC2)CC1)C(=O)O)C(=O)O (177Lu complex, metal not drawn) [PSMA-617, reference compound]
13.8

====

Molecular target: human serum albumin (HSA) (Homo sapiens, UniProt P02768)
Construct: purchased Biowest, Nuaillé, France
Assay: Albumin-mediated size exclusion chromatography (AMSEC)
Type: in vitro ADME
Settings: from tR,AMSEC by column calibration; 700 µM HSA in PBS pH 7.4
The reader will find reported MWapp,raw (raw apparent molecular weight) values listed item by item below.
Just the number plus its unit, please.

Example entries begin here.
CC(C)(C)[Si](F)(c1ccc(C(=O)NC[C@H](NC(=O)CC[C@H](C(=O)O)N2CCN(CC(=O)[O-])CCN(CC(=O)[O-])CCN(CC(=O)[O-])CC2)C(=O)N[C@H](CCCCNC(=O)CCC(=O)NCCC[C@@H](NC(=O)CC[C@H](NC(=O)N[C@@H](CCC(=O)O)C(=O)O)C(=O)O)C(=O)O)C(=O)O)cc1)C(C)(C)C.[177Lu+3]; 32.0 kDa
CC(C)(C)[Si](F)(c1ccc(C(=O)NC[C@@H](NC(=O)CN2CCN(CC(=O)[O-])CCN(CC(=O)[O-])CCN(CC(=O)[O-])CC2)C(=O)N[C@H](CCCCNC(=O)CCC(=O)NCCC[C@@H](NC(=O)CC[C@H](NC(=O)N[C@@H](CCC(=O)O)C(=O)O)C(=O)O)C(=O)O)C(=O)O)cc1)C(C)(C)C.[177Lu+3]; 25.3 kDa

Quick one: give measured MWapp,raw (raw apparent molecular weight) for O=C(O)CC[C@H](NC(=O)N[C@@H](CCCCNC(=O)CCCCCCC(=O)NCCCC[C@@H](NC(=O)[C@@H](Cc1ccccc1)NC(=O)[C@@H](Cc1ccc(O)c(I)c1)NC(=O)CCC(C(=O)O)N1CCN(CC(=O)O)CCN(CC(=O)O)CCN(CC(=O)O)CC1)C(=O)O)C(=O)O)C(=O)O (stereo partly drawn) (177Lu complex, metal not drawn) [PSMA-I&T, reference compound]
5.4 kDa

====

Target: human serum albumin (HSA) (Homo sapiens, UniProt P02768)
Construct: purchased Biowest, Nuaillé, France
Test: Albumin-mediated size exclusion chromatography (AMSEC)
Assay type: in vitro ADME
Conditions: 177Lu-labeled ligand; mobile phase 700 µM HSA in PBS pH 7.4; Superdex 75 Increase; corrected for detector offset, normalized to column 1
Each record here notes measured tR,AMSEC (retention time in AMSEC run).
Number first, unit second.

Answered examples (3):
CC(C)(C)[Si](F)(c1ccc(C(=O)NC[C@H](NC(=O)CC[C@@H](C(=O)O)N2CCN(CC(=O)[O-])CCN(CC(=O)[O-])CCN(CC(=O)[O-])CC2)C(=O)N[C@H](CCCCNC(=O)CCC(=O)NCCC[C@@H](NC(=O)CC[C@H](NC(=O)N[C@@H](CCC(=O)O)C(=O)O)C(=O)O)C(=O)O)C(=O)O)cc1)C(C)(C)C.[177Lu+3]; 14.143 min
CC(C)(C)[Si](F)(c1ccc(C(=O)NC[C@H](NC(=O)CN2CCN(CC(=O)[O-])CCN(CC(=O)[O-])CCN(CC(=O)[O-])CC2)C(=O)N[C@H](CCCCNC(=O)CCC(=O)NCCC[C@@H](NC(=O)CC[C@H](NC(=O)N[C@@H](CCC(=O)O)C(=O)O)C(=O)O)C(=O)O)C(=O)O)cc1)C(C)(C)C.[177Lu+3]; 15.908 min
CC(C)(C)[Si](F)(c1ccc(C(=O)NC[C@@H](NC(=O)CN2CCN(CC(=O)[O-])CCN(CC(=O)[O-])CCN(CC(=O)[O-])CC2)C(=O)N[C@H](CCCCNC(=O)CCC(=O)NCCC[C@@H](NC(=O)CC[C@H](NC(=O)N[C@@H](CCC(=O)O)C(=O)O)C(=O)O)C(=O)O)C(=O)O)cc1)C(C)(C)C.[177Lu+3]; 15.410 min

Now for another entry.
# lookup: human serum albumin (HSA) (Homo sapiens, UniProt P02768) tR,AMSEC (retention time in AMSEC run), key = O=C(O)CC[C@H](NC(=O)N[C@@H](CCCCNC(=O)CCCCCCC(=O)NCCCC[C@@H](NC(=O)[C@@H](Cc1ccccc1)NC(=O)[C@@H](Cc1ccc(O)c(I)c1)NC(=O)CCC(C(=O)O)N1CCN(CC(=O)O)CCN(CC(=O)O)CCN(CC(=O)O)CC1)C(=O)O)C(=O)O)C(=O)O (stereo partly shown) (177Lu complex, metal not drawn) [PSMA-I&T, reference compound]
20.983 min
